Target: T1, Her2 (UniProt P04626 23-652, limits assumed)
T1 construct: also called Her2/neu; Neu
Assay: method not stated; affinity for Her2
pKd: −log10 of the molar value. Bridges are numbered along the chain shown (N, C = ends). Where no end group is shown, it is not given here.
observable: pKd

FCDGFYACYMDV (disulfide 2-8 (inferred), also called anti-Her2 peptide) [AHNP peptide] : 6.46

Value source: patent US20080206136A1
